Biological target: human A2AAR (Homo sapiens)
Sequence (P29274 whole entry): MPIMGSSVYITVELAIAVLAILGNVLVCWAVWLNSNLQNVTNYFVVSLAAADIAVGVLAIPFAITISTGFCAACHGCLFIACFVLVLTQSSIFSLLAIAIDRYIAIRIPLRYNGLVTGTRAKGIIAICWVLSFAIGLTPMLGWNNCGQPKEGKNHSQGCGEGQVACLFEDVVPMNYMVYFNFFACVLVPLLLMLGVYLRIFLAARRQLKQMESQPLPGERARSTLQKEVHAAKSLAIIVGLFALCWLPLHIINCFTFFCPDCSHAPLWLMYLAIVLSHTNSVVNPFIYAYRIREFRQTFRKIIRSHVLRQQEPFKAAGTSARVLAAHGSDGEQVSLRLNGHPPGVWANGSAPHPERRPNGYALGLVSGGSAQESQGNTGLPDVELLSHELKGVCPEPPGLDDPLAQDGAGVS
Details: read-out: hA2A Ki; displacement of specific [3H]ZM241385 binding, human HeLa cells, ± SEM, n = 3
Value type: Ki (nM)

> print(dat)
                                    compound  value.type  value.reported
 1  N#Cc1c(-c2ccccc2)nc(N)nc1-c1ccccc1 [18a]          Ki            18.6
 2  CCNc1nc(-c2ccccc2)c(C#N)c(-c2cccc(C#N)c2)n1 [19t]          Ki             155
 3  Cc1ccc(-c2nc(N)nc(-c3ccccc3)c2C#N)cc1 [18n]          Ki            8.93
 4  N#Cc1cccc(-c2nc(N)nc(-c3ccccc3)c2C#N)c1 [18i]          Ki            84.1
 5  COc1ccccc1-c1nc(N)nc(-c2ccccc2)c1C#N [18d]          Ki            17.7
 6  N#Cc1c(-c2ccccc2)nc(Nc2ccccc2)nc1-c1ccco1 [19au]          Ki            2.15
 7  N#Cc1c(-c2ccccc2)nc(Nc2ccccc2)nc1-c1cccc(Cl)c1 [19n]          Ki            46.3
 8  CNc1nc(-c2ccccc2)c(C#N)c(-c2cccc(OC)c2)n1 [19q]          Ki            82.6
 9  N#Cc1c(-c2ccccc2)nc(N)nc1-c1ccc(O)cc1 [18m]          Ki            26.5
10   N#Cc1c(-c2ccccc2)nc(N)nc1-c1ccoc1 [18z]          Ki            52.1
11  N#Cc1c(-c2ccccc2)nc(Nc2ccccc2)nc1-c1cccnc1 [19bf]          Ki            27.1
12  N#Cc1c(-c2ccccc2)nc(N)nc1-c1ccc2ccccc2c1 [18af]          Ki            5.78
13  CNc1nc(-c2ccccc2)c(C#N)c(-c2ccco2)n1 [19at]          Ki             401
14  Cc1ccc(-c2nc(Nc3ccccc3)nc(-c3ccccc3)c2C#N)cc1 [19ae]          Ki             157
15  COc1cccc(-c2nc(Nc3ccccc3)nc(-c3ccccc3)c2C#N)c1 [19r]          Ki             133
16  CCNc1nc(-c2ccccc2)c(C#N)c(-c2cccnc2)n1 [19be]          Ki             335
17  CCNc1nc(-c2ccccc2)c(C#N)c(-c2ccc3c(c2)OCO3)n1 [19ap]          Ki             894
18  CCNc1nc(-c2ccccc2)c(C#N)c(-c2cccc(Cl)c2)n1 [19m]          Ki             295
19  CNc1nc(-c2ccccc2)c(C#N)c(-c2cc(OC)c(OC)c(OC)c2)n1 [19ar]          Ki            3.63
20  N#Cc1c(-c2ccccc2)nc(N)nc1-c1cccc(Cl)c1 [18f]          Ki            15.5
21  CNc1nc(-c2ccccc2)c(C#N)c(-c2cccc(O)c2)n1 [19o]          Ki             105
22  N#Cc1c(-c2ccccc2)nc(N)nc1-c1ccncc1 [18ab]          Ki             676
23  COc1cc(-c2nc(N)nc(-c3ccccc3)c2C#N)cc(OC)c1OC [18v]          Ki            0.95
24  N#Cc1c(-c2ccccc2)nc(Nc2ccccc2)nc1-c1ccsc1 [19ba]          Ki             102
25  COc1cc(OC)cc(-c2nc(Nc3ccccc3)nc(-c3ccccc3)c2C#N)c1 [19an]          Ki            17.3
26  CNc1nc(-c2ccccc2)c(C#N)c(-c2ccccc2)n1 [19a]          Ki             711
27   N#Cc1c(-c2ccccc2)nc(N)nc1-c1ccco1 [18x]          Ki            10.1
28  N#Cc1c(-c2ccccc2)nc(Nc2ccccc2)nc1-c1cccs1 [19aw]          Ki             330
